system: carbapenemase producing K. pneumoniae; assay: MIC by broth micro-dilution (CLSI), carbapenemase producing K. pneumoniae; type: cell-based, Klebsiella pneumoniae; conditions: Klebsiella pneumoniae, ATCCBAA1705, KPC-2 K. pneumoniae ATCC BAA-1705; read-out: MIC
Measurement Kind: MIC (µg/mL)

INSERT INTO results (smiles_code, value) VALUES
  ('C[C@@H](NC(=O)Cn1cnnn1)[C@H]1C(=O)N2C(C(=O)O)=C(S[C@@H]3CN[C@H](C(=O)N4C[C@@H](O)[C@@H](NC(=N)N)C4)C3)[C@H](C)[C@H]12', 1),
  ('C[C@H](NS(C)(=O)=O)C(=O)N[C@H](C)[C@H]1C(=O)N2C(C(=O)O)=C(S[C@@H]3CN[C@H](C(=O)N(C)C)C3)[C@H](C)[C@H]12', 32),
  ('C[C@@H](NC(=O)Cn1cnnn1)[C@H]1C(=O)N2C(C(=O)O)=C(S[C@@H]3CN[C@H](C(=O)N4CC(NC(=N)N)C4)C3)[C@H](C)[C@H]12', 0.5),
  ('C[C@@H](NC(=O)Cn1cnnn1)[C@H]1C(=O)N2C(C(=O)O)=C(S[C@@H]3CN[C@H](C(=O)N4C[C@@H](N)C[C@H]4CO)C3)[C@H](C)[C@H]12', 2),
  ('C[C@@H](NC(=O)Cn1cnnn1)[C@H]1C(=O)N2C(C(=O)O)=C(SC3CN(S(N)(=O)=O)C3)[C@H](C)[C@H]12', 16);

====

The following molecules are shown together with reported MIC values.
system: carbapenemase producing K. pneumoniae; test: MIC by broth micro-dilution (CLSI), carbapenemase producing K. pneumoniae; type: cell-based, Klebsiella pneumoniae; conditions: Klebsiella pneumoniae, ATCCBAA1705, KPC-2 K. pneumoniae ATCC BAA-1705; read-out: MIC
Measurement Kind: MIC (µg/mL)

INSERT INTO measurements (molecule, value_relation_sign, value) VALUES
  ('CNCC(=O)N[C@H](C)[C@H]1C(=O)N2C(C(=O)O)=C(S[C@@H]3CN[C@H](C(=O)N4CC[C@H](NC=N)C4)C3)[C@H](C)[C@H]12', '=', 2),
  ('CC(C)C[C@H](O)C(=O)N[C@H](C)[C@H]1C(=O)N2C(C(=O)O)=C(S[C@@H]3CN[C@H](C(=O)N(C)C)C3)[C@H](C)[C@H]12', '>', 128),
  ('C[C@@H](NC(=O)Cn1cnnn1)[C@H]1C(=O)N2C(C(=O)O)=C(S[C@@H]3CN[C@H](C(=O)N4CCC(CN)(CO)CC4)C3)[C@H](C)[C@H]12', '=', 1),
  ('C[C@@H](NC(=O)Cn1cnnn1)[C@H]1C(=O)N2C(C(=O)O)=C(S[C@@H]3CN[C@H](C(=O)N4CC5C(N)C5C4)C3)[C@H](C)[C@H]12 (stereo partly shown)', '=', 4),
  ('C[C@@H](NC(=O)Cn1cnnn1)[C@H]1C(=O)N2C(C(=O)O)=C(S[C@@H]3CN[C@H](C(=O)N4CC5C[C@@H](NC(=N)N)C[C@]5(CO)C4)C3)[C@H](C)[C@H]12 (stereo partly shown)', '=', 1),
  ('C[C@@H](NC(=O)Cn1cnnn1)[C@H]1C(=O)N2C(C(=O)O)=C(S[C@@H]3CN[C@H](C(=O)N4C[C@@H]5C[C@@H](N)C[C@]5(CO)C4)C3)[C@H](C)[C@H]12', '=', 2),
  ('C[C@@H](NC(=O)Cn1cnnn1)[C@H]1C(=O)N2C(C(=O)O)=C(S[C@@H]3CN[C@H](C(=O)Nc4ccc(CN)cc4)C3)[C@H](C)[C@H]12', '=', 4),
  ('CC(F)C(=O)N[C@H](C)[C@H]1C(=O)N2C(C(=O)O)=C(S[C@@H]3CN[C@H](C(=O)N(C)C)C3)[C@H](C)[C@H]12 (mixture of isomers)', '=', 16),
  ('C[C@@H](NC(=O)C(F)F)[C@H]1C(=O)N2C(C(=O)O)=C(S[C@@H]3CN[C@H](C(=O)N4CC[N+](C)(C)CC4)C3)[C@H](C)[C@H]12', '=', 16),
  ('C[C@@H](NC(=O)Cn1nc(C(F)(F)F)nc1N)[C@H]1C(=O)N2C(C(=O)O)=C(S[C@@H]3CN[C@H](C(=O)N(C)C)C3)[C@H](C)[C@H]12', '=', 4);
